Where do these numbers come from? They come from patent US20080026996A1.

# target-desc: rat VPAC2 receptor (Rattus norvegicus, UniProt P35000)
# Sequence (P35000 23-437): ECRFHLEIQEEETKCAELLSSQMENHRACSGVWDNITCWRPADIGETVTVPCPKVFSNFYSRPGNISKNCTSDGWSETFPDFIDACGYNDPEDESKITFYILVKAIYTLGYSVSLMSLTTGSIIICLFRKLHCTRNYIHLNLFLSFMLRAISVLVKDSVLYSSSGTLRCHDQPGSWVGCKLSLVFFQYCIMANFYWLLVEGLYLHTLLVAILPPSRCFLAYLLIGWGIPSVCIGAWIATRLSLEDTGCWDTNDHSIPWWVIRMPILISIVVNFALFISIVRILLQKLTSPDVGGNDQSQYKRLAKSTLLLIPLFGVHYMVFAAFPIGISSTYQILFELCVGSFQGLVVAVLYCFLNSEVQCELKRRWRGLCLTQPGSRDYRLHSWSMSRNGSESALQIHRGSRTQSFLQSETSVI
# assay-name: DiscoveRx in vitro potency, CHO-PO cells transiently transfected with rat VPAC 2 receptor DNA
# Format: cell-based
# Parameters: expressed in transfected cells; host or cells: CHO-PO, transient
Where no end group is shown, it is not given here. [ ]: non-standard residue; d: D form. The star is where a group is joined. hArg = N=C(N)NCCCC[C@H](N)C(=O)O; Orn = NCCC[C@H](N)C(=O)O; Hexanoyl = CCCCCC(=O)*; Aib = CC(C)(N)C(=O)O
For each record, write down the corresponding pEC50.
Here pEC50 is given on a logarithmic scale as minus log10 of the concentration in mol/L.

Return the recorded pEC50 value; entry: Hexanoyl-HSDAVFTDNYTRLRKQVAAQKYLQSIKNKRYGGPSSGAPPPS [Agonist P150]
10.00

Look up pEC50 of Hexanoyl-HSDAVFTDNYTRLR[Aib]QVAAK[Aib]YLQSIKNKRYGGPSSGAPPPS [Agonist P264] and report it.
10.00

Give the reported pEC50 for this substance. Hexanoyl-HSDAVFTDNYTRLR[Aib]KVAA[Aib]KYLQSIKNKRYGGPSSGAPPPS [Agonist P321]
10.40

Please report pEC50 for the following substance: Hexanoyl-HSDAVFTDNYTRLR[Aib]QLAAK[Aib]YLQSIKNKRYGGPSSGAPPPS [Agonist P284]
10.15

# return recorded pEC50 for input Hexanoyl-HSDAVFTDNYTRLR[Aib]QLAA[Aib]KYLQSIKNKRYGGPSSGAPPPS [Agonist P291]
10.22

Given the substance Hexanoyl-HSDAVFTDNYTRLRQQVAAKKYLQSIKNKRYGGPSSGAPPPS [Agonist P177] , write its reported pEC50.
10.00

Using the record for Hexanoyl-HSDAVFTDNYTRL[hArg][Orn]QVAAKKYLQSIKNKRYGGPSSGAPPPS [Agonist P308] , state its measured pEC50.
10.05

// fetch pEC50 given entry Hexanoyl-HSDAVFTDNYTRLR[Aib]QVAA[Aib][Orn]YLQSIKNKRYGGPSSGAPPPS [Agonist P342]
10.22
